The reader will find reported viability, T/C values listed item by item below.
# Test system: MDA-MB-231 multicell spheroids, viability (%T/C)
# assay: Anticancer human tumor MDA-MB-231 cell line growth inhibition [IpAb];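 further: viability read after seven days of drug exposure; 100% = DMSO vehicle control viability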
# conditionInfo: second compound 0.1 µM; first compound 0.00949 µM; active compounds read low
Number in %, nothing else.

| compound | testTarget | viability, T/C, % |
| --- | --- | --- |
| Cn1cnc2c(F)c(Nc3ccc(Br)cc3Cl)c(C(=O)NOCCO)cc21 + CCN1CCN(Cc2ccc(Nc3ncc(F)c(-c4cc(F)c5nc(C)n(C(C)C)c5c4)n3)nc2)CC1 | MDA-MB-231 multicell spheroids, viability (%T/C) | 36.9 |

In plain terms, CC(=O)c1c(C)c2cnc(Nc3ccc(N4CCNCC4)cn3)nc2n(C2CCCC2)c1=O + CCN1CCN(Cc2ccc(Nc3ncc(F)c(-c4cc(F)c5nc(C)n(C(C)C)c5c4)n3)nc2)CC1 has a documented viability, T/C of 54

Value of measured viability, T/C for the entry CC(=O)c1c(C)c2cnc(Nc3ccc(N4CCNCC4)cn3)nc2n(C2CCCC2)c1=O + CC(C)NCC(C(=O)N1CCN(c2ncnc3c2C(C)CC3O)CC1)c1ccc(Cl)cc1 : 67.7

The compound listed as CC(C)(C)c1cnc(CSc2cnc(NC(=O)C3CCNCC3)s2)o1 + CC(C)NCC(C(=O)N1CCN(c2ncnc3c2C(C)CC3O)CC1)c1ccc(Cl)cc1 shows viability, T/C equal to 110

Form field viability, T/C, entry Cn1cnc2c(F)c(Nc3ccc(Br)cc3Cl)c(C(=O)NOCCO)cc21 + CC(C)NCC(C(=O)N1CCN(c2ncnc3c2C(C)CC3O)CC1)c1ccc(Cl)cc1 : 43.2

Recorded viability, T/C (compound CC(C)(C)c1cnc(CSc2cnc(NC(=O)C3CCNCC3)s2)o1 + CCN1CCN(Cc2ccc(Nc3ncc(F)c(-c4cc(F)c5nc(C)n(C(C)C)c5c4)n3)nc2)CC1 ): 59.1
